tested on: CHO cells; assay: Cytotoxicity screen in CHO cells; conditions: toxic above the stated concentration; CHO cells; listed with DFMO assay
reported_endpoint: tox (DFMO Assay)

[Q] Item "COc1ccccc1N1CCN(c2ccc(NC(=O)c3ccccc3Cl)c(C(=O)O)c2)CC1" has what recorded tox (DFMO Assay)?
[A] > 15 µM

* * *

system: CHO cells; assay: Cytotoxicity screen in CHO cells; settings: toxic above the stated concentration; CHO cells; listed with Ant44 assay
reported_endpoint: Tox (Ant44)

[Q] Please tell me: Tox (Ant44) of COc1ccc(C(=O)Nc2ccc(N3CCN(c4ccccc4Cl)CC3)cc2C(=O)O)cc1 [SBI-0800682] , system CHO cells?
[A] > 20 µM
